- STUDY SYSTEM: T1, hAPLNR (Homo sapiens, UniProt P35414)
- T1 sequence (P35414 1-380): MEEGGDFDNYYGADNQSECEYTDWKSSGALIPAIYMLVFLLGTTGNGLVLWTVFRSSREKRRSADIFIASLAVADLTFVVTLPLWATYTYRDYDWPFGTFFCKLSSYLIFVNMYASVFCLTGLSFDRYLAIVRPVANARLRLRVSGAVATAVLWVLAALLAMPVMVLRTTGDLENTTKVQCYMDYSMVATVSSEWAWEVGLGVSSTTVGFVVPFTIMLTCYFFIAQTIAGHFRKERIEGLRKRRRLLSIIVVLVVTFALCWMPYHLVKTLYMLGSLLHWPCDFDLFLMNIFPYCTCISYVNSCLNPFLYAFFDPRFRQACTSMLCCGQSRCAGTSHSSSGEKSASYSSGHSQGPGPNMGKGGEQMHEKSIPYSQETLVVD
- MEASUREMENT PROTOCOL: CRE-luciferase cyclic AMP assay, activation of hAPLNR (inhibition of Forskolin-induced cAMP) in HEK293/CRE-luc/hAPLNR cells
- Format: cell-based
- Set-up: expressed in transfected cells
- CONDITION DETAILS: Table 6A; without Apelin; % of maximum Apelin activation
READOUT KIND: % Activation at 100 nM mAb (at 5 uM Forskolin)

[[record]]
molecule = "H4H9113P: anti-APLNR antibody, HCVR/LCVR SEQ ID NO: 210/218, human IgG4 Fc (antibody, V domains shown, human IgG4 Fc) VH: QVQLVQSGAEVKKPGASVEVSCKASGYTFTDYYIHWIRQAPGQGLEWMGWINPDSGRTNYAQKFQVRVTMTRDTSITTAYMELNRLKSDDTAVYYCARGPLRGYSGYDFFDYWGQGTLVTVSS VL: DIQMTQSPSSLSASVGDRVTITCRASQGIRNDLGWYQQKPGKAPNRLIYAASSLQSGVPSRFSGSGSGTEFTLTISSLHPEDFATYSCLQHNSFPLTFGGGTKVEIK"
endpoint_result = "No Activation"

[[record]]
molecule = "H4H9101P: anti-APLNR antibody, HCVR/LCVR SEQ ID NO: 146/154, human IgG4 Fc (antibody, V domains shown, human IgG4 Fc) VH: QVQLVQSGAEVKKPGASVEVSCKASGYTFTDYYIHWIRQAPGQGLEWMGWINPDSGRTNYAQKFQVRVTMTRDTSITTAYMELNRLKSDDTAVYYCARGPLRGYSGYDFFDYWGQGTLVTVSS VL: DIQLTQSPSFLSASVGDRVTITCWASQGISSYLAWYQQKPGKAPKLLIYAASTLQSGVPSRFSGSGSGTEFTLTISSLQPEDFASYFCQQLNSNPRTFGQGTKVEIK"
endpoint_result = "No Activation"

[[record]]
molecule = "H4H9103P: anti-APLNR antibody, HCVR/LCVR SEQ ID NO: 162/170, human IgG4 Fc (antibody, V domains shown, human IgG4 Fc) VH: EVQLVESGGGLVQPGRSLRLSCAASGFTFDDYAMHWVRQVPGKGLEWVSGITWNSGDIGYADSVKGRFTISRDNAKNSLYLQMNSLRAEDTALYYCTKDKDSSGYYGIDVWGQGTTVTVSS VL: DIQMTQSPSSVSASVGDRVTITCRASQGIRTWLAWYQQKPGKAPKLLIYAASSLQSGVPSRFSGSESGTDFTLTISSLQPEDFATYYCQQANSFPFTFGPGTKVDIK"
endpoint_result = "No Activation"

